experimental.system: human recombinant histamine H2 receptor (Homo sapiens)
Construct: expressed in transfected cells; host or cells: CHO-K1 cells
Sequence (P25021 whole entry): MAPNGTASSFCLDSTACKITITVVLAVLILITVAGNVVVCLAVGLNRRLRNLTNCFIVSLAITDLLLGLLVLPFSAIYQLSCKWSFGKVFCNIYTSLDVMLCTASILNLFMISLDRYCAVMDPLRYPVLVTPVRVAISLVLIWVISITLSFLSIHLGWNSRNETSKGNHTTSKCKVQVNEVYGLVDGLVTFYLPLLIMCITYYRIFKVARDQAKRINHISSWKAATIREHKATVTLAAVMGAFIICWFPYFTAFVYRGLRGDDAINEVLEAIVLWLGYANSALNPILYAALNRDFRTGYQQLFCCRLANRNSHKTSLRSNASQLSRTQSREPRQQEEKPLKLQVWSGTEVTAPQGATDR
experiment.description: Histamine H2 radioligand binding ([125I]Aminopotentidine)
measurement.conditions: compound at 1 μM; inhibition of specific [125I]Aminopotentidine binding; read-out: Histamine Binding (1 μM) H2, Percentage Inhibition
Kindly state inhibition at 1 µM for each of the entries shown.
Give bare numbers, in %.

* C/C(=C\n1c2c(c3cc(Cl)ccc31)C1CCC(C2)N1C)c1ccc(Cl)c(Cl)c1 (stereo not shown) | 99
* Cc1ccc2c(c1)c1c(n2CCc2ccc(F)cc2)CC2CCC1N2C (stereo not shown) | 52
* CN1C2CCC1c1c(n(CCC(=O)N3CC[S+]([O-])CC3)c3ccc(Cl)cc13)C2 (stereo not shown) | 1

Turning to the following molecule.
Asked: inhibition at 1 µM for C/C(=C\n1c2c(c3cc(Cl)ccc31)C1CCC(C2)N1C)c1ccc(F)cc1 (stereo not shown) ?
Given back: 93
